src = PubChem BioAssay (NCI)

This section presents compounds with their documented log10 TGI values.
# Test system: HOP-92 NSCLC
# ASSAY_REMARKS: NCI tumour cell line growth inhibition, 48 h
Please keep in mind that the values are log10 of TGI expressed in µM.

Illustrative cases are given below, each with its answer.
Cc1c2cc[n+](Cc3ccc(I)cc3)cc2c(C)c2c1[nH]c1ccccc12 = 0.52
CCCN1C(=O)/C(=C/c2ccc(SC(F)(F)F)cc2)SC1=Nc1ccc(OC)cc1 = 1.30
O=C(Nc1ccn(C2CC(O)C(COC(c3ccccc3)(c3ccccc3)c3ccccc3)O2)c(=O)n1)c1ccccc1 (stereo unspecified) = 0.56

Prompt line: Using known records, supply log10 TGI for COC(=O)CC1(O)C(=O)OCc2c1cc1n(c2=O)Cc2c-1nc1ccccc1c2OC (stereo unspecified)
Response line: 1.96

Prompt line: Using known records, supply log10 TGI for Cc1ccc(S(=O)(=O)OC[C@@]2(C)CC[C@]3(C)CC[C@]4(C)C(=C3C2)C=C[C@@H]2[C@@]3(C)CCCNC(C)(C)[C@@H]3CC[C@]24C)cc1
Response line: 0.47

---

# System: DU-145 prostate
# ASSAY_REMARKS: NCI tumour cell line growth inhibition, 48 h
READOUT: TGI

Illustrative cases are given below, each with its answer.
O=c1cc(-c2ccccc2)oc2ccc(Cl)cc12 = > 100 µM
Cc1ccc(/C=c2\cc3oc(=O)c4cccc(c4-3)c2=O)cc1 = > 100 µM
CCOC(=O)[C@@]12C[C@](/C=C/OC)(O[Si](C)(C)C)[C@@]13c1cc(OC)c(OC)cc1CCN3C(=O)C2=O = > 100 µM

Prompt line: Using known records, supply TGI for Nc1nc(SCc2ccccc2CCl)c2[nH]cnc2n1
Response line: 41.7 µM

Prompt line: Using known records, supply TGI for CCOC(=O)C1=C(O)CC(=O)N=C1N1CCCC1
Response line: > 100 µM

---

# Test system: 786-0 renal
# ASSAY_REMARKS: NCI tumour cell line growth inhibition, 48 h
READOUT: TGI

Illustrative cases are given below, each with its answer.
CN(C)S(=O)(=O)c1ccc2[nH]c(O)c(C3=Nc4ccccc4C3=O)c2c1 = 50.3 µM
CSc1c(C(C)=O)c(O)n(-c2ccc(C)cc2)c(=O)c1C#N = > 100 µM
Cn1c(=O)c(-c2ccccc2Cl)cc2cnc(NC3CCOCC3)nc21 = > 25 µM

Prompt line: Using known records, supply TGI for CCCN1C(=O)/C(=C/c2ccc(SC(F)(F)F)cc2)SC1=Nc1ccc(OC)cc1
Response line: 25.6 µM

Prompt line: Using known records, supply TGI for O=P(CN1CCOCC1)(c1ccccc1)c1ccccc1
Response line: > 100 µM

Prompt line: Using known records, supply TGI for O=C(O)CNc1ccc2c(c1)Cc1cc(Br)ccc1-2
Response line: > 84.5 µM

Prompt line: Using known records, supply TGI for COc1ccc(OC)c2c(C(C)=O)cccc12
Response line: > 100 µM

Prompt line: Using known records, supply TGI for C=C1OC2OC(C)C(NC(=O)OCC(Cl)(Cl)Cl)C(OC(C)=O)C2O1 (stereo unspecified)
Response line: > 100 µM

Prompt line: Using known records, supply TGI for Cc1ccc(S(=O)(=O)N/N=C2\C=CC3(CC2)C(=O)N(I)c2ccccc23)cc1 (stereo unspecified)
Response line: > 100 µM

Prompt line: Using known records, supply TGI for S=C(NCc1ccccn1)N/N=C/c1ccccn1
Response line: > 86.1 µM

Prompt line: Using known records, supply TGI for [O]=[Sn]([CH]1CCCCC1)[CH]1CCCCC1
Response line: 0.456 µM
